System: glycogen synthase kinase-3 (GSK3A per assay name; protocol says GSK3B)
Assay Name: compounds binding glycogen synthase kinase-3 – biochemical, small-molecule microarray, 635 nm fluorescence, GSK3A, primary screen (AID 1103); further: the record names both GSK3A and GSK3B
Conditions: fluorescence 635 nm, higher = more signal
Observed Property: composite z-score
Lab note: write the figure by itself, no unit.

Summary: CN(C)CCCCNC(=O)[C@H]1C[C@H]2C(=O)NCC(=O)N2[C@H]1c1ccc(O)cc1 , glycogen synthase kinase-3 (GSK3A per assay name; protocol says GSK3B), composite z-score = -0.286

// assay glycogen synthase kinase-3 (GSK3A per assay name; protocol says GSK3B), entry Cc1ccc(F)cc1S(=O)(=O)N[C@H]1CCN(Cc2ccc(OC(C)C)cc2)C1 , composite z-score value = 0.0619

So the reported composite z-score for COCCCNC(=O)[C@@H]1c2ccccc2C(=O)N(Cc2ccc(OC(F)(F)F)cc2)[C@H]1c1ccc(CO)cc1 , on glycogen synthase kinase-3 (GSK3A per assay name; protocol says GSK3B), turned out to be 0.723

Field composite z-score (glycogen synthase kinase-3 (GSK3A per assay name; protocol says GSK3B)), entry CCCCCCc1nc(-c2ccc(-c3ccc(Cl)c(Cl)c3)o2)cc2c1[Si](C(C)C)(C(C)C)OC2 : -1.22
